# Tested target: SCD5 (Homo sapiens)
# Construct: host or cells: S. cerevisiae ole1Δ strain (W303 pdr1Δ pdr3Δ background), plasmid pRS316 with TDH3 promoter and CYC1 terminator
# Sequence (Q86SK9 whole entry): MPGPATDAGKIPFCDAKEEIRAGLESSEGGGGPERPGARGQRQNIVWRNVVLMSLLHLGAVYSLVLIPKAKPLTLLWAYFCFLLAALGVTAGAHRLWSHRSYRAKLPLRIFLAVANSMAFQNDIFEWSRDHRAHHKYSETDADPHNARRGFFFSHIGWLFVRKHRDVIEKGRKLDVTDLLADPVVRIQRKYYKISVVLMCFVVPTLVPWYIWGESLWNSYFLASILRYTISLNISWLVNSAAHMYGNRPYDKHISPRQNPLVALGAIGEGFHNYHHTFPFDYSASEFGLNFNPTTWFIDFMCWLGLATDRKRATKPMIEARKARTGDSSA
# Experimental details: Growth inhibition of humanized yeast strain expressing SCD5 as sole desaturase
# Assay type: cell-based
# Condition description: growth inhibition of humanized yeast strain expressing human SCD5
pIC50: −log10 of the molar value.
Property measured: pIC50

• CC(C)(C)OC(=O)N1CCC(c2nc(-c3ccc4cnn(C(C)(C)CO)c4c3)no2)CC1 = 6.59
• CC(C)n1ncc2ccc(-c3noc(C4CCN(S(=O)(=O)C5CCCCC5)CC4)n3)cc21 = 4.47
• CC(C)(C)OC(=O)N1CCC(c2nc(-c3ccc4cnn(C5CCCOC5)c4c3)no2)CC1 (centres unmarked) = 5.71
• CC(C)(C)OC(=O)N1CCC(c2nc(-c3ccc4cnn(CC5CCNC5=O)c4c3)no2)CC1 (centres unmarked) = 5.35
• CC(CF)n1ncc2ccc(-c3noc(C4CCN(C(=O)OC5(C)CC5)CC4)n3)cc21 (centres unmarked) = 6.29
• O=C(CC1CC1)N1CCN(c2nc(-c3ccc4cnn(C5COC5)c4c3)no2)CC1 = 5.38
• CC(C)(C)OC(=O)N1CCN(c2nc(-c3ccc4cnn(C5COC5)c4c3)no2)CC1 = 7.64
• COC(=O)N1CCN(c2nc(-c3ccc4cnn(C5COC5)c4c3)no2)CC1 = 5.74
• O=C(OC1CC1)N1CCN(c2nc(-c3ccc4cnn(C5COC5)c4c3)no2)CC1 = 6.68
• CC(C)(C)OC(=O)N1CCC(c2nc(-c3ccc4cnn(C5CNC5)c4c3)no2)CC1 = 6.90
• CC(C)n1ncc2ccc(-c3noc(C4(F)CCN(C(=O)CC5(C)CC5)CC4)n3)cc21 = 6.07
• O=C(c1ccccc1F)N1CCC(c2noc(-c3ccc4cnn(C5COC5)c4c3)n2)CC1 = 7.10
• CC(C)n1nc(CCO)c2ccc(-c3noc(C4CCN(C(=O)OC(C)(C)C)CC4)n3)cc21 = 5.12
• CC(C)N1C(=O)Cc2ccc(-c3noc(C4CCN(C(=O)OC5(C)CC5)CC4)n3)cc21 = 5.67
• CC(C)n1ncc2ccc(-c3noc(C4CCN(C(=O)C5(C#N)CC5)CC4)n3)cc21 = 5.82
• CC(C)n1ncc2ccc(-c3nc(C4CCN(C(=O)c5ncccc5F)CC4)no3)cc21 = 6.64
• CC(C)n1ncc2ccc(-c3nc(N4CCN(C(=O)OC5(C)CC5)CC4)no3)cc21 = 8.00
• CC(C)(C)OC(=O)N[C@H]1CC[C@@H](c2nc(-c3ccc4cnn(C5COC5)c4c3)no2)CC1 = 4.99
• CC(C)(C)OC(=O)N1CCC(c2nc(-c3ccc4cnn(C5CC(F)(F)C5)c4c3)no2)CC1 = 5.30
• COC(=O)N1CCN(c2noc(-c3ccc4cnn(C(C)C)c4c3)n2)CC1 = 7.85
• CNC(=O)O[C@H]1CC[C@@H](c2nc(-c3ccc4cnn(C(C)C)c4c3)no2)CC1 = 5.03
• O=C(c1ccccc1)N1CCN(c2noc(-c3ccc4cnn(C5COC5)c4c3)n2)CC1 = 7.80

These data points were gathered from patent US11873298B2.
